- assayed target: AChE (obtained from electric eel; EeAChE) (Electrophorus electricus)
- Construct: AChE (obtained from electric eel); purchased Merck (Prague, Czech Republic); host or cells: electric eel (natural source)
- Sequence (O42275 24-633): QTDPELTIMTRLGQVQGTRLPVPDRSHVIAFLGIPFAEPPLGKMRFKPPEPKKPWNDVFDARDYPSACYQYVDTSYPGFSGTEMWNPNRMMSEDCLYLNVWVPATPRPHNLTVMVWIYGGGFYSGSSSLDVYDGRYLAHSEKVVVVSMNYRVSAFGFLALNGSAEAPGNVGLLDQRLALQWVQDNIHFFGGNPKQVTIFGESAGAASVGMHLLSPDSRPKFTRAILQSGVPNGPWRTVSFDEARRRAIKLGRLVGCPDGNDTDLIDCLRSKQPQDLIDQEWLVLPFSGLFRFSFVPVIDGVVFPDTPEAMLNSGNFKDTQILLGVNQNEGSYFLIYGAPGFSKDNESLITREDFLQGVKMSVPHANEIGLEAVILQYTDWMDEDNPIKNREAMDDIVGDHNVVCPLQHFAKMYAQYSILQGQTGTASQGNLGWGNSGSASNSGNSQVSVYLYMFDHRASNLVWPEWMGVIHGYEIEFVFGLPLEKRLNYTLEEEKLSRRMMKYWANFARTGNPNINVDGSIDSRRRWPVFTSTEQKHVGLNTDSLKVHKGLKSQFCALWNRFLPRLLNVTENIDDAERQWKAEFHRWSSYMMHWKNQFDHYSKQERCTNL
- assay overview: biochemical
- Format: biochemical
- condition label: electric eel AChE; mean ± SD from three independent experiments
Exam item: assign met to entries whose IC50 is below 70 µM and not met to entries at or above 70 µM. Note that a value of exactly 70 µM receives not met.

[[record]]
compound = "CCCCCCCCCCCCCNC(=O)NNC(=O)c1ccc(C)cc1 [1p]"
class_label = "not met"

[[record]]
compound = "CCCCCCCCCCCCCNC(=O)NNC(=O)c1ccc(C(C)(C)C)cc1 [1r]"
class_label = "not met"

[[record]]
compound = "CCCCCCCCCCCCCNC(=O)NNC(=O)c1ccc(Br)cc1 [1h]"
class_label = "not met"

[[record]]
compound = "CNC(=O)NNC(=O)c1ccccc1[N+](=O)[O-] [2g]"
class_label = "met"

[[record]]
compound = "CCCCCCCCCCCCCNC(=O)NNC(=O)c1ccccc1[N+](=O)[O-] [2h]"
class_label = "met"


Cited source for all entries: paper PMC9962224
